test system: LOC_OS04G38480-cb003; assay: thermal shift delta Tm vs DMSO control; higher = stronger stabilization (binding); conditions: 12.5 µM; protein concentration 2 µM;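 further: purified Escherichia coli-expressed rice kinase domain construct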
Sequence (as listed by the source): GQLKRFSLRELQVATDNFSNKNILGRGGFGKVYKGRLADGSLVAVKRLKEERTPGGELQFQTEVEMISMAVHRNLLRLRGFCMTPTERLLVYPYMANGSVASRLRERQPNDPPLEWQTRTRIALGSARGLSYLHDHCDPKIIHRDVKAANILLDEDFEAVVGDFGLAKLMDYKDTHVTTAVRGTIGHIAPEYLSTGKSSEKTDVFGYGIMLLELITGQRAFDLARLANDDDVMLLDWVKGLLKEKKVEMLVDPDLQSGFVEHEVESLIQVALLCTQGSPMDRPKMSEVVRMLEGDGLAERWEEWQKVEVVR
Each record's class is read off its thermal shift delta Tm using these ranges: low range = under 0.8 °C, mid range = from 0.8 °C up to 2 °C, high range = 2 °C and over

These recorded examples may help you get a feel for the data.
O=C1Nc2ccc(I)cc2/C1=C/c1cc(Br)c(O)c(Br)c1 :: low range
Cn1c(=O)c(Oc2ccc(F)cc2F)cc2cnc(NC(CCO)CCO)nc21 :: mid range
Cc1[nH]c(/C=C2\C(=O)Nc3ccc(S(=O)(=O)N(C)c4cccc(Cl)c4)cc32)c(C)c1C(=O)N1CCN(C)CC1 :: high range
CN1CCC(Nc2nc(Nc3ccc(Oc4ccccc4)cc3)c3c(=O)[nH]cc(Br)c3n2)CC1 :: high range
CN1CCN(c2ccc(OC(F)(F)F)c(Nc3ncc4c(n3)-c3c(c(C(N)=O)nn3CCO)CC4)c2)CC1 :: low range

Asked: // return the class label for CCCCCCCCCCCCCCCCOP(=O)([O-])OCC[N+](C)(C)C
Given back: low range

Asked: Place this compound in its band: C[C@H](NC(=O)/C(C#N)=C/c1cccc(Br)n1)c1ccccc1
Given back: low range

###

Exercise: for every item that follows, state its recorded thermal shift delta Tm.
tested on: LOC_OS01G10900-cb004; test: thermal shift delta Tm vs DMSO control; higher = stronger stabilization (binding); conditions: 12.5 µM; protein concentration 2 µM
Don't forget the unit after the number, please.

Previously resolved entries follow.
CCCNC(=O)c1cn2ncnc(Nc3cc(C(=O)NC4CC4)ccc3C)c2c1C :: -0.05 °C
O=c1c(O)c(-c2ccc(O)c(O)c2)oc2cc(O)cc(O)c12 :: 1.68 °C

Asked: Give the measured thermal shift delta Tm for CCOc1cc2ncc(C#N)c(Nc3ccc(OCc4ccccn4)c(Cl)c3)c2cc1NC(=O)/C=C/CN(C)C
Given back: 1 °C

###

System: LOC_OS04G41100-cb001
Sequence (whole entry): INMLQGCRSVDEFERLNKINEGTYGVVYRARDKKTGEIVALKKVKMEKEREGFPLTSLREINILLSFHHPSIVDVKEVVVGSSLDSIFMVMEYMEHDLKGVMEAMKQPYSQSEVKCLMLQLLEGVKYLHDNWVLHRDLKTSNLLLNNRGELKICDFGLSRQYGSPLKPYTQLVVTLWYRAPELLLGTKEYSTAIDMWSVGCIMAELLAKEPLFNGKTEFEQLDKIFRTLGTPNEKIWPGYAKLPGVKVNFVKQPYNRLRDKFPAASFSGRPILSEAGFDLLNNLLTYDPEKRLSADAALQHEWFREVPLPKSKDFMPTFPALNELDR
Assay: thermal shift delta Tm vs DMSO control; higher = stronger stabilization (binding)
Conditions: 12.5 µM; protein concentration 2 µM
readoutType: thermal shift delta Tm (°C)
Give bare numbers, in °C.

Count: 6. Required value per item: thermal shift delta Tm.
1. Cc1cc(Nc2cc(N3CCN(C)CC3)nc(/C=C/c3ccccc3)n2)n[nH]1 [ENMD-2076 L-(+)-Tartaric acid]
2. CCOc1cc(C(=O)N2CCC(N3CCN(C)CC3)CC2)ccc1Nc1ncc2c(n1)N(C1CCCC1)c1ccccc1C(=O)N2C
3. Cc1cc(Nc2nc(N[C@@H](C)c3ncc(F)cn3)ncc2Cl)[nH]n1
4. CCc1cnn2c(NCc3ccc[n+]([O-])c3)cc(N3CCCC[C@H]3CCO)nc12
5. COc1cc(OC)cc(-c2cc3cnc(N)nc3nc2NC(=O)NC(C)(C)C)c1
6. OC1CCC(Nc2ncc3nc(Nc4c(F)cc(F)cc4F)n([C@H]4CCOC4)c3n2)CC1 (stereo not given in full)

Given back:
[1.89, 0.13, 0.47, 0.68, 0.39, 0.44]

###

system: LOC_OS02G17970-cb001; test: thermal shift delta Tm vs DMSO control; higher = stronger stabilization (binding); settings: 12.5 µM; protein concentration 2 µM
Each record's class is read off its thermal shift delta Tm using these ranges: bottom end: < 0.3 °C; midrange: ≥ 0.3 °C and < 2 °C; top end: ≥ 2 °C

CC(C)N(CCC(=O)c1ccc2ccccc2c1)Cc1ccccc1 :: top end

Asked: Category lookup for the compound CC(C)(O)CNc1ncc(-c2ccnc(Nc3ccncc3)n2)c(CC2CC2)n1
Given back: bottom end

Asked: Please report the category associated with FC(F)c1nc2ccccc2n1-c1nc(N2CCOCC2)nc(N2CCOCC2)n1 , nothing else.
Given back: midrange

Asked: Class? Entry: CCCCCCCCCCCCCCCCOP(=O)([O-])OCC[N+](C)(C)C
Given back: bottom end

###

system: LOC_OS03G50810-cb003; assay: thermal shift delta Tm vs DMSO control; higher = stronger stabilization (binding); details: 12.5 µM; protein concentration 2 µM
Entry class follows thermal shift delta Tm: low bracket (below 0.8 °C), middle bracket (0.8 °C to below 2 °C), high bracket (2 °C or more)

Below, 2 compounds whose answers are already recorded.
CC(C)n1nc(-c2ccc3oc(N)nc3c2)c2c(N)ncnc21 :: low bracket
Cc1c[nH]c2nc(Nc3ccc(N4CCN(C)CC4)c(F)c3)nc(-c3cccc(CC#N)c3)c12 :: high bracket

Asked: Hi, small favor: classify Cc1nc2ccc(-n3ncc(C(=O)c4cc5ccccc5[nH]4)c3N)cc2[nH]1 by its thermal shift delta Tm when you get a moment.
Given back: low bracket

Asked: Each compound maps to one class by thermal shift delta Tm. Which class for Nc1nc(N)c(N=O)c(OCC2CCCCC2)n1 ?
Given back: middle bracket

Asked: Dear colleague, I would appreciate it if you could identify the bin for COc1cc(Nc2ncc(F)c(Nc3ccc4c(n3)NC(=O)C(C)(C)O4)n2)cc(OC)c1OC and reply at your convenience.
Given back: high bracket

Asked: Please indicate the class for c1cn2cc(-c3ccc4cn[nH]c4c3)nc(Nc3ccc(N4CCOCC4)cc3)c2n1 [Entospletinib (GS-9973)] based on its thermal shift delta Tm.
Given back: high bracket

Asked: Each compound maps to one class by thermal shift delta Tm. Which class for CCOC(=O)c1cnc2ccc(-c3cncc(NS(=O)(=O)c4ccccc4)c3)cn12 ?
Given back: low bracket

Asked: Could you tell me which band FC(F)(F)c1ccc(CNc2ccc(Cc3c[nH]c4ncc(Cl)cc34)cn2)cn1 [Pexidartinib (PLX3397)] belongs to?
Given back: middle bracket

Asked: Please report the category associated with N#Cc1ccc(-c2c(-c3ncn[nH]3)sc(N3CCOCC3)c2C#N)c(F)c1 , nothing else.
Given back: low bracket

Asked: # bin label for CN1CCN(c2ccc(C(=O)Nc3n[nH]c4ccc(Cc5cc(F)cc(F)c5)cc34)c(NC3CCOCC3)c2)CC1 [Entrectinib (RXDX-101)]
Given back: high bracket

###

system: LOC_OS01G67340-cb003; test: thermal shift delta Tm vs DMSO control; higher = stronger stabilization (binding); settings: 12.5 µM; protein concentration 2 µM
Structures can show the parent of a compound that is named as a salt.
Cut-off 0.2 °C on thermal shift delta Tm, inclusive. At or above means Yes; below means No.

C[C@H](CN(C)C)Oc1nc(Nc2cc3cccc(Cl)c3cn2)cnc1C#N :: Yes
FC(F)c1nc2ccccc2n1-c1nc(N2CCOCC2)nc(N2CCOCC2)n1 :: No
O=C(Nc1cnn2ccc(N3CCC[C@@H]3c3cc(F)ccc3F)nc12)N1CC[C@H](O)C1 [Larotrectinib (LOXO-101) sulfate] :: Yes
O=c1cc(N2CCOCC2)oc2c1ccc1ccccc12 :: Yes
COc1cc2ncnc(Nc3ccc(Cl)cc3F)c2cc1OC :: Yes
COc1cc2ncc(-c3ccccc3)nc2cc1OC :: Yes
CN1CCN(c2nc(C3=C(c4c[nH]c5ccccc45)C(=O)NC3=O)c3ccccc3n2)CC1 :: Yes
Clc1ccc(Nc2nnc(Cc3ccncc3)c3ccccc23)cc1 [Vatalanib (PTK787) 2HCl] :: No
COc1cc2nccc(Oc3ccc(NC(=O)c4cn(C(C)C)c(=O)n(-c5ccc(F)cc5)c4=O)cc3F)c2cc1OC :: Yes

Asked: Record CC(C)(CO)n1cc(C(=O)c2cncc(NC(=O)Cc3ccc(Cl)cn3)c2)c2cnc(N)nc21 ; criterion: thermal shift delta Tm no lower than 0.2 °C. Met?
Given back: No

###

tested on: LOC_OS05G07850-cb002; assay: thermal shift delta Tm vs DMSO control; higher = stronger stabilization (binding); conditions: 12.5 µM; protein concentration 2 µM
So I've got a bunch of molecules here, and I need their thermal shift delta Tm values.
I'd appreciate it if you included the unit after the number.

Take a look at these entries with their results.
COc1cc(Nc2ncc(F)c(Nc3ccc4c(n3)NC(=O)C(C)(C)O4)n2)cc(OC)c1OC :: 13.2 °C
CN1CCN(C2CCN(C(=O)Nc3cc(Oc4ccc(NC(=O)C5(C(=O)Nc6ccc(F)cc6)CC5)c(F)c4)ccn3)CC2)CC1 [Golvatinib (E7050)] :: 5.87 °C
CNC(=O)c1ccccc1Nc1cc(Nc2ccc(N3CCOCC3)cc2OC)ncc1C(F)(F)F :: 7.4 °C
COc1cc(CCc2cc(NC(=O)c3ccc(N4CC(C)NC(C)C4)cc3)n[nH]2)cc(OC)c1 (stereo unspecified) :: 3.41 °C
Cc1ccc(C(=O)Nc2cccc(C(F)(F)F)c2)cc1Nc1nc(-c2cccnc2)nc2c1cnn2C :: 0.03 °C

Next up:
Asked: Return thermal shift delta Tm (reported value) for this molecule: O=C(NOCCO)c1ccc2cncn2c1Nc1ccc(I)cc1F
Given back: -0.3 °C
